Listed here: items and their measured MIC90.
# Test system: Enterococcus sp.
# ASSAY_PROTOCOL: Antibacterial activity against Enterococcus species., VanA
# Type: functional
Answer format: numeric, µg/mL implied, no suffix.

INSERT INTO results (compound, readout_number) VALUES
  ('CN[C@H](CC(C)C)C(=O)N[C@H]1C(=O)N[C@@H](CC(N)=O)C(=O)N[C@H]2C(=O)N[C@H]3C(=O)N[C@H](C(=O)N[C@H](C(=O)O)c4cc(O)cc(O)c4-c4cc3ccc4O)[C@H](O)c3ccc(c(Cl)c3)Oc3cc2cc(c3O[C@@H]2O[C@H](CO)[C@@H](O)[C@H](O)[C@H]2O[C@H]2C[C@](C)(N)[C@H](O)[C@H](C)O2)Oc2ccc(cc2Cl)[C@H]1O', 4),
  ('CN[C@H]1C(=O)N[C@@H]2Cc3ccc(cc3)Oc3cc4cc(c3O[C@@H]3O[C@H](C(=O)O)[C@@H](O)[C@H](O)[C@H]3NC(=O)CCCCCCCCC(C)C)Oc3ccc(cc3Cl)[C@@H](O)[C@@H]3NC(=O)[C@H](NC(=O)[C@@H]4NC(=O)[C@@H](NC2=O)c2cc(cc(O)c2Cl)Oc2cc1ccc2O)c1ccc(O)c(c1)-c1c(O[C@H]2O[C@H](CO)[C@@H](O)[C@H](O)[C@@H]2O)cc(O)cc1[C@@H](C(=O)NCCCN(C)C)NC3=O', 128),
  ('CCCCCCCCCCNCCN[C@@]1(C)C[C@H](O[C@H]2[C@H](Oc3c4cc5cc3Oc3ccc(cc3Cl)[C@@H](O)[C@@](C)(NC(=O)[C@@H](CC(C)C)NC)C(=O)N[C@@H](CC(N)=O)C(=O)N[C@H]5C(=O)N[C@H]3C(=O)N[C@H](C(=O)N[C@H](C(=O)O)c5cc(O)c(CNCP(=O)(O)O)c(O)c5-c5cc3ccc5O)[C@H](O)c3ccc(c(Cl)c3)O4)O[C@H](CO)[C@@H](O)[C@@H]2O)O[C@@H](C)C1O (some centres undefined)', 8);

Now turn to the next compound.
Tell me measured MIC90 for CN[C@H](CC(C)C)C(=O)N[C@H]1C(=O)N[C@@H](CC(N)=O)C(=O)N[C@H]2C(=O)N[C@H]3C(=O)N[C@H](C(=O)N[C@H](C(=O)O)c4cc(O)cc(O)c4-c4cc3ccc4O)[C@H](O[C@H]3C[C@](C)(N)[C@@H](O)[C@H](C)O3)c3ccc(c(Cl)c3)Oc3cc2cc(c3O[C@@H]2O[C@H](CO)[C@@H](O)[C@H](O)[C@H]2O[C@H]2C[C@](C)(NCc3ccc(-c4ccc(Cl)cc4)cc3)[C@@H](O)[C@H](C)O2)Oc2ccc(cc2Cl)[C@H]1O please.
4
